- ASSAY_SUMMARY: Pharmacokinetic assay in ICR mice (i.v. and p.o.)
- Format: in vivo
- CONDITION_SET: mouse, plasma; male ICR mice, po, 10 mg/kg
Please go through the items and note down their AUC.
Provide only the numeric value, understood in ng·h/mL.

Per the record, Cc1sc(C(=O)O)cc1Nc1ncc2c(n1)n(C1CCOCC1)c(=O)n2C [Compound 41] has AUC of 1500

For reference, reported AUC for Cc1cc(C(N)=O)ncc1Nc1ncc2c(n1)n(C1CCOCC1)c(=O)n2C [Compound 18] stands at 1360

Lab note: Cc1cc(C(N)=O)c(F)cc1Nc1ncc2c(n1)n([C@@H]1CCOC1)c(=O)n2C [Compound 76] gave AUC of 1360

Consider Cc1cc(C#N)ccc1Nc1ncc2c(n1)n([C@H]1CC[C@H](C#N)CC1)c(=O)n2C [Compound 80] . Its measured AUC is 21200

Form: compound = Cc1cc(C(N)=O)ccc1Nc1ncc2c(n1)n(C1CCOCC1)c(=O)n2C [Compound 2] ; AUC = 1040

compound Cc1cc(C#N)ccc1Nc1ncc2c(n1)n([C@H]1CC[C@@H](C#N)CC1)c(=O)n2C [Compound 78] , AUC observed: 1200

# AUC (compound: CCNC(=O)c1ccc(Nc2ncc3c(n2)n(C2CCOCC2)c(=O)n3C)c(C)c1 [Compound 29] ) is 2560

Reported AUC ( Cn1c(=O)n(C2CCOCC2)c2nc(Nc3ccc(C(N)=O)cc3Cl)ncc21 [Compound 26] ) = 7100

The compound identified as Cc1sc(C(N)=O)cc1Nc1ncc2c(n1)n(C1CCOCC1)c(=O)n2C [Compound 42] registered its AUC at 1500

The compound listed as Cc1cc(C(N)=O)c(F)cc1Nc1ncc2c(n1)n([C@H]1CC[C@](C)(O)CC1)c(=O)n2C [Compound 73] has a reported AUC of 1270

Looking up [2H]C([2H])([2H])Oc1cc(C)c(Nc2ncc3c(n2)n(C2CCOCC2)c(=O)n3C)cn1 [Compound 38] , I found its AUC recorded as 1310

The compound listed as [2H]C([2H])([2H])n1c(=O)n(C2CCOCC2)c2nc(Nc3ccc(C#N)cc3C)ncc21 (single isomer, unassigned) [Compound 6] shows AUC equal to 1480

The reported value for CNC(=O)c1ccc(Nc2ncc3c(n2)n(C2CCOCC2)c(=O)n3C)c(C)c1 [Compound 27] in terms of AUC is 14600

// recorded AUC for CNC(=O)c1cc(C)c(Nc2ncc3c(n2)n(C2CCOCC2)c(=O)n3C)cn1 [Compound 54] : 5370

====

Provide the recorded IC50 for the entries that follow.
- ASSAY_TARGET: DNA-PK kinase (Homo sapiens)
- Construct: purchased Promega V4107
- ASSAY_SUMMARY: Inhibition assay of DNA-PK kinase (Promega kit, ADP-Glo chemiluminescence)
- Format: biochemical
- CONDITION_SET: 50 µM ATP, 37° C., 60 min; read-out: IC50 (nM), inhibitory activity on DNA-PK kinase
Give a bare numeral; the unit nM is implied.

Summary for this compound, Cc1cc(C(N)=O)c(F)cc1Nc1ncc2c(n1)n(C1CCOCC1)c(=O)n2C [Compound 24] : IC50 is 0.56

For record Cc1cc(C(N)=O)c(C#N)cc1Nc1ncc2c(n1)n(C1CCOCC1)c(=O)n2C [Compound 47] the listed IC50 is 3.69

Reported IC50 for CO[C@H]1CC[C@@H](n2c(=O)n(C)c3cnc(Nc4cc(F)c(C(N)=O)cc4C)nc32)CC1 [Compound 70] was 4.14

Just so you know, measured IC50 for Cc1cc(C#N)ncc1Nc1ncc2c(n1)n(C1CCOCC1)c(=O)n2C [Compound 17] came out at 28.7

Item: [2H]C([2H])([2H])Oc1cc(C)c(Nc2ncc3c(n2)n(C2CCOCC2)c(=O)n3C)cn1 [Compound 38] | IC50: 0.47

Entry Cc1cc(C#N)ccc1Nc1ncc2c(n1)n(C1CC3CC(O)CC3C1)c(=O)n2C (stereo not shown) [Compound 98] — recorded IC50 = 4.01

// recorded IC50 for Cc1cc(C(N)=O)c(F)cc1Nc1ncc2c(n1)n(C1CCC(F)(F)CC1)c(=O)n2C [Compound 83] : 0.43

Value of IC50 reported for the compound CCn1c(=O)n([C@H]2CCOC2)c2nc(Nc3cc(F)c(C(N)=O)cc3C)ncc21 [Compound 107] is 10.1

Consider CNC(=O)c1cc(C)c(Nc2ncc3c(n2)n(C2CCOCC2)c(=O)n3C)cn1 [Compound 54] . Its measured IC50 is 8.07

Recorded result, Cc1cc(C(N)=O)c(F)cc1Nc1ncc2c(n1)n(C13CCC(C#N)(CC1)CC3)c(=O)n2C [Compound 90] , IC50: 10.8

// sample Cc1ccc(C#N)cc1Nc1ncc2c(n1)n(C1CCOCC1)c(=O)n2C [Compound 15] , its IC50 was 5.28

IC50 measured on Cc1cc(C(N)=O)c(F)cc1Nc1ncc2c(n1)n([C@@H]1CCOC1)c(=O)n2C [Compound 76] = 1.96

# compound [2H]C([2H])([2H])NC(=O)c1cc(C)c(Nc2ncc3c(n2)n(C2CCOCC2)c(=O)n3C)cn1 [Compound 39] ; its IC50 = 5.7

Value of IC50 reported for the compound Cc1sc(C#N)cc1Nc1ncc2c(n1)n(C1CCOCC1)c(=O)n2C [Compound 43] is 9.8

So for Cc1cc(C(N)=O)c(F)cc1Nc1ncc2c(n1)n(C1CCC(C)(C#N)CC1)c(=O)n2C (stereo not shown) [Compound 92] , the logged IC50 turned out to be 0.02

The recorded IC50 for Cc1cc(C(N)=O)c(F)cc1Nc1ncc2c(n1)n([C@H]1CC[C@@H](C#N)CC1)c(=O)n2C [Compound 77] is 4.67

====

- ASSAY_TARGET: DNA-PK kinase (Homo sapiens, UniProt P78527)
- Construct: purchased Promega V4107
- ASSAY_SUMMARY: Inhibition assay of DNA-PK kinase (Promega kit, ADP-Glo chemiluminescence)
- Format: biochemical
- CONDITION_SET: 50 µM ATP, 37° C., 60 min; read-out: IC50 (nM), inhibitory activity on DNA-PK kinase
Classes (IC50): low (below 4 nM), medium (4 nM to below 10 nM), high (10 nM or more)

# bin label for Cc1cc(=O)[nH]cc1Nc1ncc2c(n1)n(C1CCOCC1)c(=O)n2C [Compound 55] high

Which bin should I file Cc1cc(C(N)=O)c(F)cc1Nc1ncc2c(n1)n(C1CC3(CC(CO)C3)C1)c(=O)n2C (stereo not drawn) [Compound 97] under? low

Given Cc1cc(C(N)=O)c(F)cc1Nc1ncc2c(n1)n(C1CCN(C)CC1)c(=O)n2C [Compound 82] , name the class its IC50 places it in. high

Category of Cc1cc(C(N)=O)c(F)cc1Nc1ncc2c(n1)n(C1CCCCC1)c(=O)n2C [Compound 68] : low

For Cc1cc(C(N)=O)c(F)cc1Nc1ncc2c(n1)n(C1CCOCC1)c(=O)n2C(C)C [Compound 63] , which IC50 bin applies? high

Looking at Cc1cc(C(F)(F)F)ccc1Nc1ncc2c(n1)n(C1CCOCC1)c(=O)n2C [Compound 3] , which class would you pick? high

Assign a bin to CO[C@H]1CC[C@H](n2c(=O)n(C)c3cnc(Nc4cc(F)c(C(N)=O)cc4C)nc32)CC1 [Compound 71] low

Assign a category based on measured IC50 for Cc1cc(C(N)=O)c(F)cc1Nc1ncc2c(n1)n(C1CCCC(O)C1)c(=O)n2C (stereo not drawn) [Compound 95] and give only the class name. low

Category of CNC(=O)c1cc(C)c(Nc2ncc3c(n2)n(C2CCOCC2)c(=O)n3C)cc1F [Compound 36] , please. high

Input COC(=O)c1cc(C)c(Nc2ncc3c(n2)n(C2CCOCC2)c(=O)n3C)cc1F [Compound 51] ; output its category high

Which class is correct for the following compound? Cc1cc(C(N)=O)c(F)cc1Nc1ncc2c(n1)n([C@H]1C[C@H](O)C1)c(=O)n2C [Compound 93] low

Assign a bin to Cc1cc(C(N)=O)c(F)cc1Nc1ncc2c(n1)n(C1CCOCC1)c(=O)n2CC(F)F [Compound 106] medium

Form field 'band' for Cn1c(=O)n(C2CCOCC2)c2nc(Nc3ccc(C(N)=O)cc3Cl)ncc21 [Compound 26] medium

Given Cc1cc(=O)n(C)cc1Nc1ncc2c(n1)n(C1CCOCC1)c(=O)n2C [Compound 56] , name the class its IC50 places it in. high

// bin(item) where item = COc1ccc(Nc2ncc3c(n2)n(C2CCOCC2)c(=O)n3C)c(C)n1 [Compound 21] high

Class for Cc1cc(C(N)=O)c(O)cc1Nc1ncc2c(n1)n(C1CCOCC1)c(=O)n2C [Compound 50] ? high

Determine which band this compound sits in: Cc1cc(C(N)=O)ncc1Nc1ncc2c(n1)n(C1CCOCC1)c(=O)n2C [Compound 18] low

Hi there! Could you help me figure out the category for Cc1cc(C(N)=O)c(F)cc1Nc1ncc2c(n1)n(C1CCCOC1)c(=O)n2C (stereo not drawn) [Compound 69] please? low

Lab note: sort CCn1c(=O)n(C2CCOCC2)c2nc(Nc3cc(F)c(C(N)=O)cc3C)ncc21 [Compound 62] into the matching IC50 band. medium

Input Cc1[nH]c(=O)ccc1Nc1ncc2c(n1)n(C1CCOCC1)c(=O)n2C [Compound 40] ; output its category high

Bin this entry: Cc1cc(Cl)ccc1Nc1ncc2c(n1)n(C1CCOCC1)c(=O)n2C [Compound 4] medium

Input Cc1cc(C(=O)O)c(C#N)cc1Nc1ncc2c(n1)n(C1CCOCC1)c(=O)n2C [Compound 46] ; output its category low

Lab note: which band did CCOc1cc(Nc2ncc3c(n2)n(C2CCOCC2)c(=O)n3C)c(C)cc1C(N)=O [Compound 53] land in? low

Category of [2H]C([2H])([2H])NC(=O)c1cc(C)c(Nc2ncc3c(n2)n(C2CCOCC2)c(=O)n3C)cc1F [Compound 37] : high

# bin label for Cn1c(=O)n(C2CCOCC2)c2nc(Nc3cc(F)c(C(N)=O)cc3Cl)ncc21 [Compound 59] high

Please indicate the class for Cc1cc(C(=O)NC(C)C)ccc1Nc1ncc2c(n1)n(C1CCOCC1)c(=O)n2C [Compound 30] based on its IC50. high

Hi there! Could you help me figure out the category for Cc1cc(C(N)=O)c(F)cc1Nc1ncc2c(n1)n(C1CCOCC1)c(=O)n2CCF [Compound 109] please? medium

State the band of Cc1cc(C(N)=O)c(F)c(C)c1Nc1ncc2c(n1)n(C1CCOCC1)c(=O)n2C [Compound 60] high

Hi there! Could you help me figure out the category for COC(=O)c1cc(C)c(Nc2ncc3c(n2)n(C2CCOCC2)c(=O)n3C)cc1C#N [Compound 45] please? high

Could you tell me which band Cc1cc(C#N)ccc1Nc1ncc2c(n1)n(C1CCS(=O)(=O)CC1)c(=O)n2C [Compound 101] belongs to? medium

Would you mind sorting Cc1cc(C(N)=O)c(F)cc1Nc1ncc2c(n1)n(C1CCNCC1)c(=O)n2C [Compound 81] into the appropriate category? high
